tested.on: Protein deacetylase HDAC6 (Homo sapiens, UniProt Q9UBN7)
Sequence (Q9UBN7 whole entry): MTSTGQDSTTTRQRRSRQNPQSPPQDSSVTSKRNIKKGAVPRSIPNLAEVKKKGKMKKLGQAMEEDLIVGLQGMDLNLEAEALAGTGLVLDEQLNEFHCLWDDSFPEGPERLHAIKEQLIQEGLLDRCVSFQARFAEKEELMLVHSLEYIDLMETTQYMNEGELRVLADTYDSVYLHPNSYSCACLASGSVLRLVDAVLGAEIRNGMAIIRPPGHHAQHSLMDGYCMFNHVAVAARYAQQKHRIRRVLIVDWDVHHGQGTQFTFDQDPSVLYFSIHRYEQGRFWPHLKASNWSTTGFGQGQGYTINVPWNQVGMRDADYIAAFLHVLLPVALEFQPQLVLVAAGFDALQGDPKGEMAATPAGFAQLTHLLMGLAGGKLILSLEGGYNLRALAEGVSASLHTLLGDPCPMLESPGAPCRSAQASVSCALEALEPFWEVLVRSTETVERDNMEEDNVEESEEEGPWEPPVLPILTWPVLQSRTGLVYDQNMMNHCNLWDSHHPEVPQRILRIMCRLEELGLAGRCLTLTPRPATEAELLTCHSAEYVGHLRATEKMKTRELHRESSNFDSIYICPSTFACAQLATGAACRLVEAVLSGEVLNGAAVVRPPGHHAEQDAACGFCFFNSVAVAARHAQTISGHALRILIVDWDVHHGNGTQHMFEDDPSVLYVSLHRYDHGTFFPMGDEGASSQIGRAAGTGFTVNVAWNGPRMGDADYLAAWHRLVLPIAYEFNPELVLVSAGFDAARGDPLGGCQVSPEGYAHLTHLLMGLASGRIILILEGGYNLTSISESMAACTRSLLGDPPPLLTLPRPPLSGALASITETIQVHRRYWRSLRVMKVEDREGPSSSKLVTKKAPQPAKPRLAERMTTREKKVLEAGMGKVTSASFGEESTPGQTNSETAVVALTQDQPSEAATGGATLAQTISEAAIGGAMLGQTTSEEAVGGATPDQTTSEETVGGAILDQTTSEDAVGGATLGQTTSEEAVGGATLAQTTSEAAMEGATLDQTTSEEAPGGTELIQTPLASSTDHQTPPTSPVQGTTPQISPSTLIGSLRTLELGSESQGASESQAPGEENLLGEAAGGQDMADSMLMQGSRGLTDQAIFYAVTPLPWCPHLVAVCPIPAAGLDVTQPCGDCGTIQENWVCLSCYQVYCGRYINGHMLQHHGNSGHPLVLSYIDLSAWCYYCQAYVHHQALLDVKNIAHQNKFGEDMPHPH
assay.procedure: Inhibition of HDAC6 in human HeLa cells assessed as induction of tubulin acetylation incubated for 6 hrs by cytoblot assay
experimental.endpoint: EC50 (µM)

Use these answered entries as a reference point.
[Q] What EC50 value was documented for this molecule, Cc1nc2c(c(N(C)c3ccc(OCC(=O)NO)cc3)n1)CCC2 ?
[A] 0.0508

[Q] What EC50 value was documented for this molecule, COc1ccc(N(C)c2nc(C)nc3ccccc23)cc1OCCCC(=O)NO ?
[A] 0.0589

[I] Cc1nc(N(C)c2ccc(OCC(=O)NO)cc2)c2ccccc2n1
[II] CN(c1ccc(OCC(=O)NO)cc1)c1ncnc2ccccc12
[Q] I'd appreciate it if you could identify which of I and II has the greater EC50. Identify your selection by its label.
[A] II
(II: 0.0494 µM, I: 0.0262 µM)

---

tested.on: Histone deacetylase 5 (Homo sapiens, UniProt Q9UQL6)
Sequence (Q9UQL6 whole entry): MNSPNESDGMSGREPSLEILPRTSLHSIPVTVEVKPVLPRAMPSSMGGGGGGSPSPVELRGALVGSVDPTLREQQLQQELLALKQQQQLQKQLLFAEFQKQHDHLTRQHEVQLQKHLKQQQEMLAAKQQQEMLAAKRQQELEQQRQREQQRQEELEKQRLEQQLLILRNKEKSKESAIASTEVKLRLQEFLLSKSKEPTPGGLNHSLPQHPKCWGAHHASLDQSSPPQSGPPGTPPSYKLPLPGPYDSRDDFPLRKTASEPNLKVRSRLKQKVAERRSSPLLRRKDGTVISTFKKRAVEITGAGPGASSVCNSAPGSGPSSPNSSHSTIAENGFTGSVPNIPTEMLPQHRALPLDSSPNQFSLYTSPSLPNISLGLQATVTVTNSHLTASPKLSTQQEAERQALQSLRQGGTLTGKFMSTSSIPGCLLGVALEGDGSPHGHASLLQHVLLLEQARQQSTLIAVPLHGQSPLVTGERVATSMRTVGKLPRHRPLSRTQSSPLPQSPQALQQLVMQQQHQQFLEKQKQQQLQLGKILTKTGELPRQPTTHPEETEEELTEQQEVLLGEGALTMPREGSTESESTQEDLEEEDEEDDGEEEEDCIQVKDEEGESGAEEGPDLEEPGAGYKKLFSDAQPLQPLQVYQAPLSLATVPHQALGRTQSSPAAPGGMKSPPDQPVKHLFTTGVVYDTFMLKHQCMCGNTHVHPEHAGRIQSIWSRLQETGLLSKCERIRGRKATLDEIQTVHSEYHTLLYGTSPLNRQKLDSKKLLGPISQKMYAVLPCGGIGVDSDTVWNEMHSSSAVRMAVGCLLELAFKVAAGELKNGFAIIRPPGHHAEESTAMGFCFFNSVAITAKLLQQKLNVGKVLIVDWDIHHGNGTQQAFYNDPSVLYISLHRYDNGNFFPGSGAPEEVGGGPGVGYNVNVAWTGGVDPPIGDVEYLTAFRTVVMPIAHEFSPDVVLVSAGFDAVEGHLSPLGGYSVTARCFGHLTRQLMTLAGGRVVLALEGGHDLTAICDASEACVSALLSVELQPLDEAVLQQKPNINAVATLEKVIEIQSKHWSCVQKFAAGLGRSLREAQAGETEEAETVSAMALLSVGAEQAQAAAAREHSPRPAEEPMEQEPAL
experimental.endpoint: IC50

[Q] Look up IC50 with Histone deacetylase 5 (Homo sapiens, UniProt Q9UQL6) for this molecule: COc1ccc(N(C)c2nc(C)nc3ccccc23)cc1OCCCC(=O)NO
[A] > 10 µM

---

System: HeLa
assay.procedure: Antiproliferative activity against human HeLa cells after 72 hrs by MTT assay
Type: functional, cell-based
experimental.endpoint: IC50 (nM)

[Q] Look up IC50 with HeLa for this compound: Cc1nc2c(c(N(C)c3ccc(OCC(=O)NO)cc3)n1)CCC2
[A] 2220

[Q] Look up IC50 with HeLa for this compound: COc1ccc(N(C)c2nc(C)nc3ccccc23)cc1OCCCC(=O)NO
[A] 49

[1] CN(c1ccc(OCC(=O)NO)cc1)c1ncnc2ccccc12
[2] Cc1nc(N(C)c2ccc(OCC(=O)NO)cc2)c2ccccc2n1
[Q] I'd appreciate it if you could identify which of 1 and 2 has the greater IC50. Identify your selection by its label.
[A] 1

---

tested.on: UniProt:Q13547
Sequence (Q13547 whole entry): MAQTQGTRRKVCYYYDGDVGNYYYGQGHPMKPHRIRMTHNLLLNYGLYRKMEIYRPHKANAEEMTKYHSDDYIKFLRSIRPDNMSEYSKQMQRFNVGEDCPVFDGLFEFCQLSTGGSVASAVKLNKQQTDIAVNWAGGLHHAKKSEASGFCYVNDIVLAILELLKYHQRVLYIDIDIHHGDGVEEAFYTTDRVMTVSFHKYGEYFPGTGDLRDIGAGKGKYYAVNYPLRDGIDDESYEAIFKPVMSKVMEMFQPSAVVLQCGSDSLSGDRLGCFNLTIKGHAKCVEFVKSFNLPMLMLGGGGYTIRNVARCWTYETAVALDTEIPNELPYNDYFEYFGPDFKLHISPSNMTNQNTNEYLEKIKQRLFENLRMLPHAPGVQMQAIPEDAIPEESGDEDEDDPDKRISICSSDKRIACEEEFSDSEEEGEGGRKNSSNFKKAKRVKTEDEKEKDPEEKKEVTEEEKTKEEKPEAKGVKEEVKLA
experimental.endpoint: IC50 (nM)

[Q] What IC50 value was documented for this molecule, Cc1nc(N(C)c2ccc(OCCCCC(=O)NO)cc2)c2ccccc2n1 ?
[A] 204

[Q] What IC50 value was documented for this molecule, COc1ccc(N(C)c2nc(C)nc3ccccc23)cc1OCCCCC(=O)NO ?
[A] 253

[A] Cc1nc2c(c(N(C)c3ccc(OCCCCC(=O)NO)cc3)n1)CCC2
[B] Cc1nc(N(C)c2cccc(OCCCCC(=O)NO)c2)c2ccccc2n1
[Q] Which of these two has the smaller recorded IC50: A or B ? Identify your selection by its label.
[A] A

---

tested.on: Histone deacetylase 8 (Homo sapiens, UniProt Q9BY41)
Sequence (Q9BY41 whole entry): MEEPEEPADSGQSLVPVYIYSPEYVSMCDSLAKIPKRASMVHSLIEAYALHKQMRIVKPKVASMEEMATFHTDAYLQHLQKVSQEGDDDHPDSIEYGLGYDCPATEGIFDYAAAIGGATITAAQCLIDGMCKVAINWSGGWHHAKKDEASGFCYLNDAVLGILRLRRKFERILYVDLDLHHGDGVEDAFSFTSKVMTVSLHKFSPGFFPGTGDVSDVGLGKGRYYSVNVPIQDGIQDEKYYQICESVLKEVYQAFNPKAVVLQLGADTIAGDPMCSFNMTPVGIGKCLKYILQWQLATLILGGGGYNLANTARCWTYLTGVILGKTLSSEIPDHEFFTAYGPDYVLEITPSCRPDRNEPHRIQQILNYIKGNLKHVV
experimental.endpoint: IC50 (nM)

[I] Cc1nc2c(c(N(C)c3ccc(OCC(=O)NO)cc3)n1)CCC2
[II] Cc1nc2c(c(N(C)c3ccc(OCCCCCC(=O)NO)cc3)n1)CCC2
[Q] I'd appreciate it if you could identify which of I and II has the greater IC50. Identify your selection by its label.
[A] I
(I: 2970 nM, II: 1000 nM)

---

tested.on: Histone deacetylase 7 (Homo sapiens, UniProt Q8WUI4)
Sequence (Q8WUI4 whole entry): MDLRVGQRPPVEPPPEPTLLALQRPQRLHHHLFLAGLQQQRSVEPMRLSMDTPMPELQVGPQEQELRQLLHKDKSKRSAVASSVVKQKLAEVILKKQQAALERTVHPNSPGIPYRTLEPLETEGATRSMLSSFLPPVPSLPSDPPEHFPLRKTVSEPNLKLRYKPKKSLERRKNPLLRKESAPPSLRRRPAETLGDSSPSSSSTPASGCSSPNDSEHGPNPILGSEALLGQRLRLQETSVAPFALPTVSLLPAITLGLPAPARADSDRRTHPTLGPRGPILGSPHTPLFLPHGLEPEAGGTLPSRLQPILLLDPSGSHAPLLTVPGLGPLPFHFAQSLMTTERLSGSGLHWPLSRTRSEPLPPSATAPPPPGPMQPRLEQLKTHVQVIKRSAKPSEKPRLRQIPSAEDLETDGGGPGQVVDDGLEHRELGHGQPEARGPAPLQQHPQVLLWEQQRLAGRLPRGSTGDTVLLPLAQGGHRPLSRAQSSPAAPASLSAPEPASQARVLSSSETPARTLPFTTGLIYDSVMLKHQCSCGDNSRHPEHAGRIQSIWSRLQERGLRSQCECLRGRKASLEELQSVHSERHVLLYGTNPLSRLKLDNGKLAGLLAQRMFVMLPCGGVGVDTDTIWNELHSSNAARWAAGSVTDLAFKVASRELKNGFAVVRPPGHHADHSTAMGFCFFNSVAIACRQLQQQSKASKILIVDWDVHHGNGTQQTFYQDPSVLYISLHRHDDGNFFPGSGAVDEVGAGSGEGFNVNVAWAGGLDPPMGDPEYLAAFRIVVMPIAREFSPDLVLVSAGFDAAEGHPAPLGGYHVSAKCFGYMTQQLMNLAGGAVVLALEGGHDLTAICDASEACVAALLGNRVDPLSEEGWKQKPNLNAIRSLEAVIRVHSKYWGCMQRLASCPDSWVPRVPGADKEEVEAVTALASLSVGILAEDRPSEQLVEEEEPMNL
pIC50: −log10 of the molar value.
experimental.endpoint: pIC50

[Q] Look up pIC50 with Histone deacetylase 7 (Homo sapiens, UniProt Q8WUI4) for this compound: COc1ccc(N(C)c2nc(C)nc3ccccc23)cc1OCCCC(=O)NO
[A] < 5.00

These entries and their values trace back to ChEMBL document CHEMBL3774354.
